Numbers sourced from patent US20250027068.

# MEASURED TARGET: pooled human IgG (human IgG1, 2, 3 and 4)
MEASUREMENT TYPE: Enzyme Activity Endpoint Assay: Fab′2 (ng/µL)
Numbers only, in ng/µL.

QUERY: For the protein shown here, PRT-554 (protein) MANQEIRYSEETPKTITSVWTKGVTPPTDFIKNEDVFHAPYVANQGWYDITKTFNGKDDLLCGAATAGNMLHWWFDQNKEEIENYLKKHPEKQKINFNGEQMFDVKEAIDTKDSQTDSALFNYFKDKAFPYLSTKHLGVFPDHVIDMFINGYRLSLTNHGPTPVKDGTKDPRGGIFDAVFTRGDQTKLLTARHDFKEKTLNEISDLIKQELTEGKALGLSHTYANVRINHVINLWGADFDSEGNLEAIYVTDSDSNASIGMKKYYVGVNAAGKVAISAKEIEDDNIGAQVLGLFTLSTGQDIWEQTNLEHHHHHH , give the reported Enzyme Activity Endpoint Assay: Fab′2.
RESULT: 580
